Please respond with reported bioavailability for every item in the list.
experiment: Oral bioavailability in rhesus monkey; assay type: ADME, organism-based, Macaca mulatta; conditions: in vivo
Answers without a unit are incomplete; give the number and then its unit.

Just so you know, measured bioavailability for CC(C)[C@@H](C)[C@@]1(C)CC[C@]2(C)[C@H]3CC[C@@H]4[C@@]5(COC[C@@]4(C)[C@@H](OC[C@](C)(N)C(C)(C)C)[C@H](n4ncnc4-c4ccncc4)C5)C3=CC[C@@]2(C)[C@@H]1C(=O)O came out at 16%

Just so you know, measured bioavailability for CC(C)[C@@H](C)[C@@]1(C)CC[C@]2(C)[C@H]3CC[C@@H]4[C@@]5(COC[C@@]4(C)[C@@H](OC[C@](C)(N)C(C)C)[C@H](n4ncnc4-c4ccncc4)C5)C3=CC[C@@]2(C)[C@@H]1C(=O)O came out at 5%

###

experiment: Oral bioavailability in dog; assay type: ADME, organism-based, Canis lupus familiaris; details: in vivo
Quantity kind: bioavailability (%)
Your answer should be a plain number; it is taken to be in %.

Just so you know, measured bioavailability for CC(C)[C@@H](C)[C@@]1(C)CC[C@]2(C)[C@H]3CC[C@@H]4[C@@]5(COC[C@@]4(C)[C@@H](OC[C@](C)(N)C(C)C)[C@H](n4ncnc4-c4ccncc4)C5)C3=CC[C@@]2(C)[C@@H]1C(=O)O came out at 21

Just so you know, measured bioavailability for CC(C)[C@@H](C)[C@@]1(C)CC[C@]2(C)[C@H]3CC[C@@H]4[C@@]5(COC[C@@]4(C)[C@@H](OC[C@](C)(N)C(C)(C)C)[C@H](n4ncnc4-c4ccncc4)C5)C3=CC[C@@]2(C)[C@@H]1C(=O)O [IBREXAFUNGERP] came out at 18

###

experiment: Dose normalized AUC in po dosed mouse; assay type: ADME, organism-based; conditions: in vivo
Quantity kind: AUC/dose (µM·kg·h/mg)
Your answer should be a plain number; it is taken to be in µM·kg·h/mg.

Just so you know, measured AUC/dose for CC(C)[C@@H](C)[C@@]1(C)CC[C@]2(C)[C@H]3CC[C@@H]4[C@@]5(COC[C@@]4(C)[C@@H](OC[C@@]4(N)CCOCC4(C)C)[C@H](n4ncnc4-c4ccncc4)C5)C3=CC[C@@]2(C)[C@@H]1C(=O)O came out at 0.35

Just so you know, measured AUC/dose for CN[C@@](C)(CO[C@H]1[C@H](n2ncnc2-c2cccnc2)C[C@@]23COC[C@]1(C)[C@@H]2CC[C@H]1C3=CC[C@@]2(C)[C@H](C(=O)O)[C@@](C)([C@H](C)C(C)C)CC[C@]12C)C(C)C came out at 0.59

Just so you know, measured AUC/dose for CC(C)[C@@H](C)[C@@]1(C)CC[C@]2(C)[C@H]3CC[C@@H]4[C@@]5(COC[C@@]4(C)[C@@H](OC[C@](C)(N)C(C)C)[C@H](n4ncnc4-c4ccccc4)C5)C3=CC[C@@]2(C)[C@@H]1C(=O)O came out at 0.5

###

assay: Oral bioavailability in mouse; assay type: ADME, organism-based; conditions: in vivo
Quantity kind: bioavailability
Answers without a unit are incomplete; give the number and then its unit.

Just so you know, measured bioavailability for CN[C@@](C)(CO[C@H]1[C@H](n2ncnc2-c2ccncc2)C[C@@]23COC[C@]1(C)[C@@H]2CC[C@H]1C3=CC[C@@]2(C)[C@H](C(=O)O)[C@@](C)([C@H](C)C(C)C)CC[C@]12C)C(C)C came out at 29%

Just so you know, measured bioavailability for CC(C)[C@@H](C)[C@@]1(C)CC[C@]2(C)[C@H]3CC[C@@H]4[C@@]5(COC[C@@]4(C)[C@@H](OC[C@](C)(N)C(C)C)[C@H](n4ncnc4-c4ccncn4)C5)C3=CC[C@@]2(C)[C@@H]1C(=O)O came out at 43%

Just so you know, measured bioavailability for CC(C)[C@@H](C)[C@@]1(C)CC[C@]2(C)[C@H]3CC[C@@H]4[C@@]5(COC[C@@]4(C)[C@@H](OC[C@](C)(N)C(C)C)[C@H](n4ncnc4-c4ccncc4)C5)C3=CC[C@@]2(C)[C@@H]1C(=O)O came out at 31%

Just so you know, measured bioavailability for CC(C)[C@@H](C)[C@@]1(C)CC[C@]2(C)[C@H]3CC[C@@H]4[C@@]5(COC[C@@]4(C)[C@@H](OC[C@](C)(N)C(C)C)[C@H](n4ncnc4-c4cccnc4)C5)C3=CC[C@@]2(C)[C@@H]1C(=O)O came out at 11%

Just so you know, measured bioavailability for CC(C)[C@@H](C)[C@@]1(C)CC[C@]2(C)[C@H]3CC[C@@H]4[C@@]5(COC[C@@]4(C)[C@@H](OC[C@](C)(N)C(C)C)[C@H](n4ncnc4-c4cncnc4)C5)C3=CC[C@@]2(C)[C@@H]1C(=O)O came out at 26%

###

system: Candida albicans; experiment: Antifungal activity against Candida albicans MY1055 infected in DBA/2 mouse model of disseminated candidiasis assessed as reduction in fungal burden in kidney by measuring log change in colony forming units at 6.25 mg/kg, po bid for 7 days by TOKA; format: functional; details: time 7 day
Please respond with reported Activity for every item in the list.
Your answer should be a plain number; it is taken to be in deltalog10CFU.

Short answer on Candida albicans for CC(C)[C@@H](C)[C@@]1(C)CC[C@]2(C)[C@H]3CC[C@@H]4[C@@]5(COC[C@@]4(C)[C@@H](OC[C@](C)(N)c4ccccc4)[C@H](n4ncnc4-c4ccncc4)C5)C3=CC[C@@]2(C)[C@@H]1C(=O)O , Activity: -0.5

Short answer on Candida albicans for CN[C@@](C)(CO[C@H]1[C@H](n2ncnc2-c2ccncc2)C[C@@]23COC[C@]1(C)[C@@H]2CC[C@H]1C3=CC[C@@]2(C)[C@H](C(=O)O)[C@@](C)([C@H](C)C(C)C)CC[C@]12C)C(C)(C)C , Activity: -1.7

Short answer on Candida albicans for CC(C)[C@@H](C)[C@@]1(C)CC[C@]2(C)[C@H]3CC[C@@H]4[C@@]5(COC[C@@]4(C)[C@@H](OC[C@](C)(N)C(C)(C)C)[C@H](n4ncnc4-c4ccncc4)C5)C3=CC[C@@]2(C)[C@@H]1C(=O)O , Activity: -2.2

Short answer on Candida albicans for CC(C)[C@@H](C)[C@@]1(C)CC[C@]2(C)[C@H]3CC[C@@H]4[C@@]5(COC[C@@]4(C)[C@@H](OC[C@](C)(N)C(C)C)[C@H](n4ncnc4-c4cncnc4)C5)C3=CC[C@@]2(C)[C@@H]1C(=O)O , Activity: -2.1

###

Please respond with reported bioavailability for every item in the list.
experiment: Oral bioavailability in mouse; type: ADME, organism-based; details: in vivo
Your answer should be a plain number; it is taken to be in %.

Just so you know, measured bioavailability for CN[C@@](C)(CO[C@H]1[C@H](n2ncnc2-c2cccnc2)C[C@@]23COC[C@]1(C)[C@@H]2CC[C@H]1C3=CC[C@@]2(C)[C@H](C(=O)O)[C@@](C)([C@H](C)C(C)C)CC[C@]12C)C(C)C came out at 21

Just so you know, measured bioavailability for CC(C)[C@@H](C)[C@@]1(C)CC[C@]2(C)[C@H]3CC[C@@H]4[C@@]5(COC[C@@]4(C)[C@@H](OC[C@](C)(N)C4(C)CC4)[C@H](n4ncnc4-c4ccncc4)C5)C3=CC[C@@]2(C)[C@@H]1C(=O)O came out at 36

Just so you know, measured bioavailability for CC(C)[C@@H](C)[C@@]1(C)CC[C@]2(C)[C@H]3CC[C@@H]4[C@@]5(COC[C@@]4(C)[C@@H](OC[C@](C)(N)C(C)C)[C@H](n4ncnc4-c4ccccc4)C5)C3=CC[C@@]2(C)[C@@H]1C(=O)O came out at 28

Just so you know, measured bioavailability for CC(C)[C@@H](C)[C@@]1(C)CC[C@]2(C)[C@H]3CC[C@@H]4[C@@]5(COC[C@@]4(C)[C@@H](OC[C@](C)(N)C(C)C)[C@H](n4ncnc4-c4ccnnc4)C5)C3=CC[C@@]2(C)[C@@H]1C(=O)O came out at 29

###

Please respond with reported AUC/dose for every item in the list.
test: Dose normalized AUC in po dosed mouse; assay type: ADME, organism-based; details: in vivo
Your answer should be a plain number; it is taken to be in µM·kg·h/mg.

Just so you know, measured AUC/dose for CC(C)[C@@H](C)[C@@]1(C)CC[C@]2(C)[C@H]3CC[C@@H]4[C@@]5(COC[C@@]4(C)[C@@H](OC[C@](C)(N)C(C)C)[C@H](n4ncnc4-c4ccncn4)C5)C3=CC[C@@]2(C)[C@@H]1C(=O)O came out at 2.38

Just so you know, measured AUC/dose for CC(C)[C@@H](C)[C@@]1(C)CC[C@]2(C)[C@H]3CC[C@@H]4[C@@]5(COC[C@@]4(C)[C@@H](OC[C@](C)(N)C(C)(C)C)[C@H](n4ncnc4-c4ccncc4)C5)C3=CC[C@@]2(C)[C@@H]1C(=O)O came out at 0.59

Just so you know, measured AUC/dose for CC(C)[C@@H](C)[C@@]1(C)CC[C@]2(C)[C@H]3CC[C@@H]4[C@@]5(COC[C@@]4(C)[C@@H](OC[C@](C)(N)C(C)C)[C@H](n4ncnc4-c4cccnc4)C5)C3=CC[C@@]2(C)[C@@H]1C(=O)O came out at 0.17

Just so you know, measured AUC/dose for CN[C@@](C)(CO[C@H]1[C@H](n2ncnc2-c2ccncc2)C[C@@]23COC[C@]1(C)[C@@H]2CC[C@H]1C3=CC[C@@]2(C)[C@H](C(=O)O)[C@@](C)([C@H](C)C(C)C)CC[C@]12C)C(C)(C)C came out at 0.62

Just so you know, measured AUC/dose for CC(C)[C@@H](C)[C@@]1(C)CC[C@]2(C)[C@H]3CC[C@@H]4[C@@]5(COC[C@@]4(C)[C@@H](OC[C@](C)(N)C(C)C)[C@H](n4ncnc4-c4ccncc4F)C5)C3=CC[C@@]2(C)[C@@H]1C(=O)O came out at 0.34

Just so you know, measured AUC/dose for CC(C)[C@@H](C)[C@@]1(C)CC[C@]2(C)[C@H]3CC[C@@H]4[C@@]5(COC[C@@]4(C)[C@@H](OC[C@](C)(N)C(C)C)[C@H](n4ncnc4-c4cncnc4)C5)C3=CC[C@@]2(C)[C@@H]1C(=O)O came out at 0.33

Just so you know, measured AUC/dose for CC(C)[C@@H](C)[C@@]1(C)CC[C@]2(C)[C@H]3CC[C@@H]4[C@@]5(COC[C@@]4(C)[C@@H](OC[C@](C)(N)C4(C)CC4)[C@H](n4ncnc4-c4ccncc4)C5)C3=CC[C@@]2(C)[C@@H]1C(=O)O came out at 0.65

Just so you know, measured AUC/dose for CC(C)[C@@H](C)[C@@]1(C)CC[C@]2(C)[C@H]3CC[C@@H]4[C@@]5(COC[C@@]4(C)[C@@H](OCC4(N)CCOCC4)[C@H](n4ncnc4-c4ccncc4)C5)C3=CC[C@@]2(C)[C@@H]1C(=O)O came out at 0.18

Just so you know, measured AUC/dose for CC(C)[C@@H](C)[C@@]1(C)CC[C@]2(C)[C@H]3CC[C@@H]4[C@@]5(COC[C@@]4(C)[C@@H](OC[C@](C)(N)C(C)C)[C@H](n4ncnc4-c4ccnnc4)C5)C3=CC[C@@]2(C)[C@@H]1C(=O)O came out at 0.23
